- Tested on: Escherichia coli TOP10;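 further: peptides expressed intracellularly from a pBAD plasmid library in pooled LB shake-flask culture, induced with 0.3% L-arabinose, DNA abundance read by NGS, three biological replicates, DESeq2 with apeglm shrinkage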
- assay_details: shrunken log2 fold change of peptide-encoding DNA abundance (4.5 h post-induction vs induction); higher = less antimicrobial activity (less host growth inhibition)
- conditions_used: time post-induction: 4.5 h; library: site-saturation at positions 5, 18, 19, 20
Returns one of 1 or -1; 1 when shrunken log2 fold change is >= 0.03.

seq_string=RRIRVRPPRLPRPRPRPEPNPRP qualitative_label=1
seq_string=RRIRERPPRLPRPRPRPDWIPRP qualitative_label=-1
seq_string=RRIRYRPPRLPRPRPRPSDMPRP qualitative_label=-1
seq_string=RRIRGRPPRLPRPRPRPGQDPRP qualitative_label=1

Identify whether the reported shrunken log2 fold change of the following sequence is 0.03 or greater: "RRIRWRPPRLPRPRPRPCAFPRP" 1

Item "RRIRSRPPRLPRPRPRPPASPRP" with shrunken log2 fold change of 0.03 or above? 1

For this sequence, is measured shrunken log2 fold change 0.03 or higher? "RRIRIRPPRLPRPRPRPWMLPRP" -1

Quick check, shrunken log2 fold change >= 0.03? "RRIRDRPPRLPRPRPRPFYGPRP" -1

State whether the measured shrunken log2 fold change reaches 0.03, counting equality as reaching it, for "RRIRNRPPRLPRPRPRPWGYPRP" -1
